molecular target: Serine/threonine-protein kinase Chk1 (Homo sapiens); assay: Inhibition of human Chk1 in H1299 cells assessed as blockade of Cdc25A degradation
Sequence (O14757 whole entry): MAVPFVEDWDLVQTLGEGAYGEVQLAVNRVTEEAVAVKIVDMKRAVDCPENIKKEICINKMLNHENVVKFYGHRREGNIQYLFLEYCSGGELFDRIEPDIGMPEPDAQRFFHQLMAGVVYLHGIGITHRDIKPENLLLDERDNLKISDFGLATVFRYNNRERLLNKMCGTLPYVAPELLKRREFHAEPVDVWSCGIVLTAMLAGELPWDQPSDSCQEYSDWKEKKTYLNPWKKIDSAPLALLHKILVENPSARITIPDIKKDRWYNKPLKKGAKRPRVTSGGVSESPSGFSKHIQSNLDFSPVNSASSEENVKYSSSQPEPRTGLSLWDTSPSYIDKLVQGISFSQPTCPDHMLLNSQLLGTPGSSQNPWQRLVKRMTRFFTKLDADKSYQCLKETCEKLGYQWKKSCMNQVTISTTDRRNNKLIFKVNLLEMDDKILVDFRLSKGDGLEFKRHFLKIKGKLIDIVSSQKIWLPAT
MEASURED METRIC: EC50 (nM)

Worked set:
CCc1cc2c(cc1OC)Nc1cc(-c3ccc([N+](=O)[O-])c(OC)c3)ccc1C(=O)N2	350
COc1cc2c(cc1OCc1ccncc1)Nc1cc(-c3ccc([N+](=O)[O-])c(OC)c3)ccc1C(=O)N2	50
COc1cc2c(cc1CCO)Nc1cc(-c3ccc([N+](=O)[O-])c(OC)c3)ccc1C(=O)N2	900
COc1cc2c(cc1OCC1CCCCO1)Nc1cc(-c3ccc([N+](=O)[O-])c(OC)c3)ccc1C(=O)N2 (centres undefined)	200
COc1cc2c(cc1CCCO)Nc1cc(-c3ccc([N+](=O)[O-])c(OC)c3)ccc1C(=O)N2	1500

a = COc1cc2c(cc1O)Nc1cc(-c3ccc([N+](=O)[O-])c(OC)c3)ccc1C(=O)N2
b = COc1cc2c(cc1CCc1ccncc1)Nc1cc(-c3ccc([N+](=O)[O-])c(OC)c3)ccc1C(=O)N2
Ask | Problem: Given the entries a and b , determine which has the lower reported EC50. Identify your pick by its label.
Reply | a
(a: 70 nM, b: 2100 nM)

I = COc1cc2c(cc1OCCO)Nc1cc(-c3ccc([N+](=O)[O-])c(OC)c3)ccc1C(=O)N2
II = COc1cc2c(cc1OC)Nc1cc(-c3ccc([N+](=O)[O-])c(OC)c3)ccc1C(=O)N2
Ask | So which one has the bigger EC50 here, I or II ? Give the chosen item's label as your response.
Reply | I
(I: 3100 nM, II: 280 nM)
